System: α-isomaltosylglucosaccharide-forming enzyme from Arthrobacter globiformis A19
test: Action on saccharides (TLC before and after enzymatic reaction)
Type: biochemical
Design: key: −: it showed no change; +: it showed a slight reduction of the color spot of the substrate and the formation of other reaction product; ++: it showed a high reduction of the color spot of the substrate and the formationof other reaction product; +++: it showed a substantial disappearance of the substrate spot and the formation of other reaction product
protocol conditions: two units/g substrate, substrate 2% (w/v), 30° C., pH 8.4, 24 hours
result type: Enzyme action, A19 enzyme

Guide cases for Enzyme action, A19 enzyme, answers given:
molecule: OC[C@H]1O[C@H](OC[C@H]2OC(O)[C@H](O)[C@@H](O)[C@@H]2O)[C@H](O)[C@@H](O)[C@@H]1O (some centres unmarked) [Isomaltose, isomaltose]
result: −
//
molecule: OC[C@H]1O[C@H](O[C@H]2O[C@H](CO)[C@@H](O)[C@H](O)[C@H]2O)[C@H](O)[C@@H](O)[C@@H]1O [Trehalose, trehalose]
result: −
//
molecule: OC[C@H]1O[C@H](OC[C@H]2O[C@H](O[C@H]3[C@H](O)[C@@H](O)C(O)O[C@@H]3CO)[C@H](O)[C@@H](O)[C@@H]2O)[C@H](O)[C@@H](O)[C@@H]1O (some centres unmarked) [Panose, panose]
result: −
//
molecule: OC[C@H]1O[C@@](CO)(O[C@H]2O[C@H](CO)[C@@H](O)[C@H](O)[C@H]2O)[C@@H](O)[C@@H]1O [Sucrose, sucrose]
result: −
//
molecule: OC[C@H]1O[C@H](O[C@H]2O[C@H](CO)[C@@H](O[C@H]3O[C@H](CO)[C@@H](O)[C@H](O)[C@H]3O)[C@H](O)[C@H]2O)[C@H](O)[C@@H](O)[C@@H]1O [Maltosyl glucoside, maltosyl glucoside]
result: ++

Kindly review the next molecule as well.
Ask: Could you share what Enzyme action, A19 enzyme was measured for OC[C@H]1O[C@@H](O[C@H]2O[C@H](CO)[C@@H](O)[C@H](O)[C@H]2O)[C@H](O)[C@@H](O)[C@@H]1O [Neotrehalose, neotrehalose] , tested on α-isomaltosylglucosaccharide-forming enzyme from Arthrobacter globiformis A19?
Result: +

----------
System: α-isomaltosylglucosaccharide-forming enzyme from Bacillus globisporus C11
test: Action on saccharides (TLC before and after enzymatic reaction)
Assay type: biochemical
Design: key: −: it showed no change; +: it showed a slight reduction of the color spot of the substrate and the formation of other reaction product; ++: it showed a high reduction of the color spot of the substrate and the formationof other reaction product; +++: it showed a substantial disappearance of the substrate spot and the formation of other reaction product
protocol conditions: two units/g substrate, substrate 2% (w/v), 30° C., pH 6.0, 24 hours
result type: Enzyme action, C11 enzyme

Worked examples, 4 compounds total:
compound: OC[C@H]1O[C@@H](OC[C@H]2OC(O)[C@H](O)[C@@H](O)[C@@H]2O)[C@H](O)[C@@H](O)[C@@H]1O (some centres unmarked) [Gentibiose, gentibiose]
Enzyme action, C11 enzyme: −
--
compound: OC[C@H]1O[C@H](O[C@H]2O[C@H](CO)[C@@H](O)[C@H](O)[C@H]2O[C@H]2O[C@H](CO)[C@@H](O)[C@H](O)[C@H]2O)[C@H](O)[C@@H](O)[C@@H]1O [Selaginose, selaginose]
Enzyme action, C11 enzyme: −
--
compound: OC[C@@H](O)[C@@H](O[C@H]1O[C@H](CO)[C@@H](O[C@H]2O[C@H](CO)[C@@H](O)[C@H](O)[C@H]2O)[C@H](O)[C@H]1O)[C@H](O)[C@@H](O)CO [Maltotriitol, maltotriitol]
Enzyme action, C11 enzyme: +
--
compound: OC[C@H]1O[C@@H](O[C@H]2[C@H](O)[C@@H](O)C(O)O[C@@H]2CO)[C@H](O)[C@@H](O)[C@H]1O (some centres unmarked) [Lactose, lactose]
Enzyme action, C11 enzyme: −

# next compound below
Ask: Please report the recorded Enzyme action, C11 enzyme for OC[C@H]1O[C@H](OC[C@H]2O[C@H](O[C@H]3[C@H](O)[C@@H](O)C(O)O[C@@H]3CO)[C@H](O)[C@@H](O)[C@@H]2O)[C@H](O)[C@@H](O)[C@@H]1O (some centres unmarked) [Panose, panose] .
Result: −
